Measured [Aurora B IC50 (nM)]/[PLK4 IC50 (nM)], listed per entry.
biological target: human recombinant Aurora B (Homo sapiens); construct: purchased ThermoFisher PR9210B; test: Aurora B Kinase Biochemical Assay (ADP-Glo); conditions: selectivity ratio; Aurora B 10 nM, 114 μM ATP
Sequence (Q96GD4 whole entry): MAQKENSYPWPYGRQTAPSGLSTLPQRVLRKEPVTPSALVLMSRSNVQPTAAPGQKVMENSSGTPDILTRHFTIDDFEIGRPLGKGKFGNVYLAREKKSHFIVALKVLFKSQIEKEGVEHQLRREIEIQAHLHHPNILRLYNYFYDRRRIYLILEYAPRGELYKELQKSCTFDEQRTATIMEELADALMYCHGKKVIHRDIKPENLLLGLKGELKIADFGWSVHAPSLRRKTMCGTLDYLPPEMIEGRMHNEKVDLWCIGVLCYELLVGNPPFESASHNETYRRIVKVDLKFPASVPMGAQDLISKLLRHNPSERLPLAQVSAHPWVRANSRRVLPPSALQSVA
When you answer, write just the number.

Example cases with answers are listed next.
- Compound: "CCOc1cc(-c2cnccn2)ccc1Nc1n[nH]c2cc([C@@H]3C[C@@]34C(=O)Nc3ccc(OC)cc34)ccc12"
  Experimental System: "human recombinant Aurora B (Homo sapiens)"
  [Aurora B IC50 (nM)]/[PLK4 IC50 (nM)]: 702.6392
- Compound: "COc1ccc2c(c1)[C@]1(C[C@H]1c1ccc3c(Nc4cc(-c5nccs5)ccc4OC)n[nH]c3c1)C(=O)N2"
  Experimental System: "human recombinant Aurora B (Homo sapiens)"
  [Aurora B IC50 (nM)]/[PLK4 IC50 (nM)]: 897.1830
- Compound: "COc1ccc2c(c1)[C@]1(C[C@H]1c1ccc3c(Nc4cc(-c5cnn(CC(F)F)c5)ccc4OC)n[nH]c3c1)C(=O)N2"
  Experimental System: "human recombinant Aurora B (Homo sapiens)"
  [Aurora B IC50 (nM)]/[PLK4 IC50 (nM)]: 764.1
- Compound: "COc1ccc2c(c1)[C@]1(C[C@H]1c1ccc3c(Nc4nc(-c5cnn(C)c5)ncc4OC)n[nH]c3c1)C(=O)N2"
  Experimental System: "human recombinant Aurora B (Homo sapiens)"
  [Aurora B IC50 (nM)]/[PLK4 IC50 (nM)]: 429.3981
- Compound: "COc1ccc2c(c1)[C@]1(C[C@H]1c1ccc3c(Nc4cc(-c5cocn5)ccc4OC)n[nH]c3c1)C(=O)N2"
  Experimental System: "human recombinant Aurora B (Homo sapiens)"
  [Aurora B IC50 (nM)]/[PLK4 IC50 (nM)]: 730.6487

**Q:** Quick one: [Aurora B IC50 (nM)]/[PLK4 IC50 (nM)] for CCOc1cc(-n2cncn2)ccc1Nc1n[nH]c2cc([C@@H]3C[C@@]34C(=O)Nc3ccc(OC)cc34)ccc12 ?
**A:** 396.7684

---

Target: human recombinant PLK4 (Homo sapiens, UniProt O00444)
Sequence (O00444 1-970): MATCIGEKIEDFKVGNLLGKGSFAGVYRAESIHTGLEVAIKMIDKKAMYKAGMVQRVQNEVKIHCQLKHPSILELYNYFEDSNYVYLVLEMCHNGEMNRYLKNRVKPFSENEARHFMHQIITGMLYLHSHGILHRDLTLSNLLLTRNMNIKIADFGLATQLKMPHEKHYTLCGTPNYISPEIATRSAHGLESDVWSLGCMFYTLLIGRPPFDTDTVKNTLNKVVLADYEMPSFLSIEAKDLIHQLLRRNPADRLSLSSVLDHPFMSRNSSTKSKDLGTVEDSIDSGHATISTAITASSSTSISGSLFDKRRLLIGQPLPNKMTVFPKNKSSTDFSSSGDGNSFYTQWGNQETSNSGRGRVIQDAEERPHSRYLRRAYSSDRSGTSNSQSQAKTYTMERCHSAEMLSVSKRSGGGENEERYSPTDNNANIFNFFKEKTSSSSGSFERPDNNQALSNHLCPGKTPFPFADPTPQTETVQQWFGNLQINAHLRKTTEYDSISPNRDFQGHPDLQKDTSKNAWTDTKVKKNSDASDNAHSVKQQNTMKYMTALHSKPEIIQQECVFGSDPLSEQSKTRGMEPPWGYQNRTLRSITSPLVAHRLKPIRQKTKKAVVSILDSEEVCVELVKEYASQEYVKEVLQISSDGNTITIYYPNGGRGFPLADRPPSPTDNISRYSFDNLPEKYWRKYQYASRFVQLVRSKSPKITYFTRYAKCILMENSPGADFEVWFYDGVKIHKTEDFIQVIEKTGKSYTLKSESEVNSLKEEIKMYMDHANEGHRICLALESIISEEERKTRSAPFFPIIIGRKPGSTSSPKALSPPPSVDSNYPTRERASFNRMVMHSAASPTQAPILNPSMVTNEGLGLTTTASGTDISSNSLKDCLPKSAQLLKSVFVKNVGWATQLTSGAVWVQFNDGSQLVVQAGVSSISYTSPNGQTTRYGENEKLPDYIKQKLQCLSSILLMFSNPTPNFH
Assay: PLK4 Biochemical Assay (ADP-Glo)
Details: 0.5 nM PLK4, 8.0 μM ATP, 4.7 μM MBP, 6 hours at RT
Property Label: pIC50
The scale used: pIC50 is minus the common logarithm of the concentration in molar units.

Example cases with answers are listed next.
- Compound: "CCS(=O)(=O)c1ccc(Nc2n[nH]c3cc([C@@H]4C[C@@]45C(=O)Nc4ccc(OC)cc45)ccc23)c(OC)c1 [Example 5]"
  pIC50: 9.15
- Compound: "COc1ccc2c(c1)[C@]1(C[C@H]1c1ccc3c(Nc4ccc(S(C)(=O)=O)cc4OC)n[nH]c3c1)C(=O)N2 [Example 2]"
  pIC50: 9.24
- Compound: "COc1ccc2c(c1)[C@]1(C[C@H]1c1ccc3c(Nc4nc(-c5ncco5)ccc4OC)n[nH]c3c1)C(=O)N2 [Example 4]"
  pIC50: 9.17
- Compound: "CCOc1cc(S(C)(=O)=O)ccc1Nc1n[nH]c2cc([C@@H]3C[C@@]34C(=O)N(C)c3ccc(OC)cc34)ccc12 [Example 23]"
  pIC50: 8.85
- Compound: "COc1ccc2c(c1)[C@]1(C[C@H]1c1ccc3c(Nc4cc(-c5ncco5)ccc4OC)n[nH]c3c1)C(=O)N2 [Example 13]"
  pIC50: 9.19

**Q:** Quick one: pIC50 for COc1ccc2c(c1)[C@]1(C[C@H]1c1ccc3c(Nc4cc(-c5cnn(C)c5)cnc4OC)n[nH]c3c1)C(=O)N2 [Example 26] ?
**A:** 9.08

**Q:** Quick one: pIC50 for COc1ccc2c(c1)[C@]1(C[C@H]1c1ccc3c(Nc4cc(-c5cnn(C)c5)ncc4OC)n[nH]c3c1)C(=O)N2 [Example 27] ?
**A:** 8.98

---

test system: CHP134; test: CHP134 CellTiter-Glo (CTG) Assay; assay type: cell-based; details: Homo sapiens, CHP-134, 120 h; viable cells by CellTiter-Glo after 5 days
pIC50: −log10 of the molar value.
// boundary case: pIC50 equal to 7 maps to Not satisfied; strictly smaller maps to Satisfied

These recorded examples may help you get a feel for the data.
- Compound: "COc1ccc2c(c1)[C@]1(C[C@H]1c1ccc3c(Nc4ccc(C(C)=O)cc4OC)n[nH]c3c1)C(=O)N2"
  Experimental System: "CHP134"
  Class Name: "Satisfied"
- Compound: "COc1ccc2c(c1)[C@]1(C[C@H]1c1ccc3c(Nc4ccc(C5(N(C)C)COC5)cc4OC)n[nH]c3c1)C(=O)N2"
  Experimental System: "CHP134"
  Class Name: "Satisfied"
- Compound: "CCOc1cnc(-c2nccs2)nc1Nc1n[nH]c2cc([C@@H]3C[C@@]34C(=O)Nc3ccc(OC)cc34)ccc12"
  Experimental System: "CHP134"
  Class Name: "Not satisfied"

**Q:** Please indicate whether the reported pIC50 of CCOc1cc(-c2cnccn2)ccc1Nc1n[nH]c2cc([C@@H]3C[C@@]34C(=O)Nc3ccc(OC)cc34)ccc12 is strictly below 7.
**A:** Satisfied

**Q:** Please indicate whether the reported pIC50 of CCOc1cc(-c2cn(C)cn2)ccc1Nc1n[nH]c2cc([C@@H]3C[C@@]34C(=O)Nc3ccc(OC)cc34)ccc12 is strictly below 7.
**A:** Satisfied

**Q:** Please indicate whether the reported pIC50 of CCOc1cc(-n2cncn2)cnc1Nc1n[nH]c2cc([C@@H]3C[C@@]34C(=O)Nc3ccc(OC)cc34)ccc12 is strictly below 7.
**A:** Satisfied

**Q:** Please indicate whether the reported pIC50 of COc1ccc2c(c1)[C@]1(C[C@H]1c1ccc3c(Nc4cc(-c5cnn(C)c5)ncc4OC)n[nH]c3c1)C(=O)N2 is strictly below 7.
**A:** Satisfied

**Q:** Please indicate whether the reported pIC50 of COc1ccc2c(c1)[C@]1(C[C@H]1c1ccc3c(Nc4ccc(-c5nnn(C)n5)cc4OC)n[nH]c3c1)C(=O)N2 is strictly below 7.
**A:** Satisfied

**Q:** Please indicate whether the reported pIC50 of COc1ccc2c(c1)[C@]1(C[C@H]1c1ccc3c(Nc4cc5c(cc4OC)S(=O)(=O)C=C5)n[nH]c3c1)C(=O)N2 is strictly below 7.
**A:** Not satisfied

**Q:** Please indicate whether the reported pIC50 of COc1ccc2c(c1)[C@]1(C[C@H]1c1ccc3c(Nc4cc(-c5cocn5)cnc4OC)n[nH]c3c1)C(=O)N2 is strictly below 7.
**A:** Satisfied

---

molecular target: human recombinant PLK4 (Homo sapiens); experiment: PLK4 Biochemical Assay (ADP-Glo); settings: 0.5 nM PLK4, 8.0 μM ATP, 4.7 μM MBP, 6 hours at RT
Property Label: pIC50
The scale used: pIC50 is minus the common logarithm of the concentration in molar units.

- Compound: "COc1ccc2c(c1)[C@]1(C[C@H]1c1ccc3c(Nc4ccc(C(C)=O)cc4OC)n[nH]c3c1)C(=O)N2"
  Experimental System: "human recombinant PLK4 (Homo sapiens)"
  Property Label: "pIC50"
  Value: 8.56
- Compound: "CCOc1ccc(-c2nccs2)cc1Nc1n[nH]c2cc([C@@H]3C[C@@]34C(=O)Nc3ccc(OC)cc34)ccc12"
  Experimental System: "human recombinant PLK4 (Homo sapiens)"
  Property Label: "pIC50"
  Value: 9.12
- Compound: "COc1ccc2c(c1)[C@]1(C[C@H]1c1ccc3c(Nc4nc(-c5cnn(C)c5)ncc4OC)n[nH]c3c1)C(=O)N2"
  Experimental System: "human recombinant PLK4 (Homo sapiens)"
  Property Label: "pIC50"
  Value: 9.59
- Compound: "CCOc1cnc(-c2nccs2)cc1Nc1n[nH]c2cc([C@@H]3C[C@@]34C(=O)Nc3ccc(OC)cc34)ccc12"
  Experimental System: "human recombinant PLK4 (Homo sapiens)"
  Property Label: "pIC50"
  Value: 8.97

# context switch: different molecule, same pIC50
**Q:** Quick one: pIC50 for COc1ccc2c(c1)[C@]1(C[C@H]1c1ccc3c(Nc4cc(-c5cocn5)ccc4OC)n[nH]c3c1)C(=O)N2 ?
**A:** 9.05

Where do the numbers come from? From patent US20260108527A1.
